ASSAY TEXT: Leishmania major promastigote growth inhibition, primary screen (AID 1063);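 also: promastigotes grown with compound for 44 hours at 28 °C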
STATED CONDITIONS: Leishmania major promastigotes, resazurin fluorescence viability; at 10 µM; hits give high values
The whole screen tested about 200,000 compounds, of which about 18,000 (9%) were called active. For the sample, actives were picked, then their nearest neighbours and some compounds at random.
PARAMETER: inhibition (%)
Answer format: numeric, % implied, no suffix.

Field: example entries. Status: answers known.
[[record]]
compound = "COc1ccc(S(=O)(=O)Nc2cccnc2)c(Cl)c1Cl"
numeric_result = 1.47

[[record]]
compound = "O=C1/C(=C/c2ccc3c(c2)OCO3)CCC/C1=C\\c1ccc2c(c1)OCO2"
numeric_result = 39.8


Task item: Give its inhibition value. Item: "CC(C)(C)NC(=O)COC(=O)c1cc(Cl)ccc1[N+](=O)[O-]"
Reply: 2.68

Task item: Give its inhibition value. Item: "Cc1ccccc1N/C(SCc1ccc(Cl)cc1)=C(/C#N)C(N)=O"
Reply: 25.8

Task item: Give its inhibition value. Item: "O=C(Nc1ccc2oc(-c3ccc4ccccc4c3)nc2c1)c1cccs1"
Reply: -1.1

Task item: Give its inhibition value. Item: "Cc1cccc(-n2cnc(C(=O)Nc3cccnc3)c2)n1"
Reply: 10.3

Task item: Give its inhibition value. Item: "Cc1ccccc1-c1nnc(SCC(=O)NCc2ccc3c(c2)OCO3)n1C"
Reply: -5.07

Task item: Give its inhibition value. Item: "O=C(Nc1ccc(N2CCN(C(=O)C3CC3)CC2)cc1)c1cccs1"
Reply: -2.42

Task item: Give its inhibition value. Item: "COc1cc(/C=N/O)ccc1OCc1ccc([N+](=O)[O-])cc1"
Reply: 51.5

Task item: Give its inhibition value. Item: "CN(CC#CCC(c1ccccc1)c1ccccc1)C(C)(C)C"
Reply: 100

Task item: Give its inhibition value. Item: "CN(C)S(=O)(=O)c1ccc2oc(SCC(=O)Nc3ccccc3F)nc2c1"
Reply: 2.57

Task item: Give its inhibition value. Item: CCCC(C(=O)NCc1ccco1)N(C(=O)CNS(=O)(=O)c1ccccc1)C1CCCC1 (centres undefined)
Reply: 60

Task item: Give its inhibition value. Item: "CCOC(=O)c1cccc(NC(=O)CN(c2ccc(C)cc2)S(=O)(=O)c2c(C)noc2C)c1"
Reply: 22.7

Task item: Give its inhibition value. Item: "CCCCCC(=O)Nc1ccc2oc(-c3ccncc3)nc2c1"
Reply: 96.4

Task item: Give its inhibition value. Item: "O=C(c1ccccc1Cl)N(Cc1ccccc1F)N1C(=O)CCCC1=O"
Reply: -3.99

Task item: Give its inhibition value. Item: "Cc1ccc(C)n1NC(=O)c1ccc([N+](=O)[O-])cc1"
Reply: -0.24

Task item: Give its inhibition value. Item: CC1CCCC(NC(=O)c2cccc(N3CCCC3=O)c2)C1C (centres undefined)
Reply: -7.83

Task item: Give its inhibition value. Item: CCN1CCCC1Cn1cnc2c([nH]c3cc(OC)ccc32)c1=O (centres undefined)
Reply: 10.5

Task item: Give its inhibition value. Item: "O=C(c1nnc(-c2ccc(Cl)cc2)o1)C1CCCC1"
Reply: -8.13

Task item: Give its inhibition value. Item: "CC(C)OCCCNc1ncnc2c1[nH]c1ccc(F)cc12"
Reply: 36.3

Task item: Give its inhibition value. Item: CCC(C)NCC(=O)Nc1ccc([N+](=O)[O-])cc1C(=O)Nc1ccccc1F (centres undefined)
Reply: 11.7

Task item: Give its inhibition value. Item: "Cc1ccccc1NC(=O)NNC(=O)OC(C)(C)C"
Reply: -6.97

Task item: Give its inhibition value. Item: "CCCCN(C(=O)/C=C/c1ccco1)c1c(N)n(CC(C)C)c(=O)[nH]c1=O"
Reply: -4.4

Task item: Give its inhibition value. Item: "CC1=NN(Cc2ccccc2)C(=O)/C1=C/c1ccc(N(C)C)cc1"
Reply: -0.65

---

ASSAY TEXT: Leishmania major promastigote growth inhibition, primary screen (AID 1063);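 also: promastigotes grown with compound for 44 hours at 28 °C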
STATED CONDITIONS: Leishmania major promastigotes, resazurin fluorescence viability; at 10 µM; hits give high values
Hit rate of the full screen: of about 200,000 compounds, about 18,000 (9%) were called active. Many of the other results were omitted from the sample, so actives are more common in it than they were.
Below, each entry is listed alongside its reported inhibition.
Answer format: numeric, % implied, no suffix.

Task item: Give its inhibition value. Item: "O=c1cc(O)c(-c2cccc(C(F)(F)F)c2)c(Cl)[nH]1"
Reply: 16.3

---

ASSAY TEXT: Leishmania major promastigote growth inhibition, primary screen (AID 1063);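 also: promastigotes grown with compound for 44 hours at 28 °C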
STATED CONDITIONS: Leishmania major promastigotes, resazurin fluorescence viability; at 10 µM; hits give high values
Out of some 200,000 compounds screened, about 18,000 (9%) were called active. The sample holds actives, similar compounds and a random draw of the others, so the mix is not that of the screen.
Below, each entry is listed alongside its reported inhibition.
Answer format: numeric, % implied, no suffix.

Task item: Give its inhibition value. Item: "CCOc1cc(NC(=S)NCCCOC)c(OCC)cc1NC(=O)c1ccco1"
Reply: 36.4

Task item: Give its inhibition value. Item: CC(OC(=O)CCc1nc(=O)c2ccccc2n1C)C(=O)NCc1ccc2c(c1)OCO2 (stereo not given)
Reply: -3.8

Task item: Give its inhibition value. Item: "COc1ccc(OC)c2[nH]c(=O)c(CCNC(=O)C(=O)c3c[nH]c4ccccc34)cc12"
Reply: -6.77

Task item: Give its inhibition value. Item: "CC(=O)c1ccc(N2CCN(S(=O)(=O)c3c(C)[nH]c(=O)[nH]c3=O)CC2)cc1"
Reply: -5.88

Task item: Give its inhibition value. Item: COc1ccc(N2C(=O)C(CC(=O)Nc3ccccc3)N(Cc3ccc(OC)c(OC)c3)C2=O)cc1 (stereo not given)
Reply: -5.05

Task item: Give its inhibition value. Item: "COc1ccc(Cl)cc1N(CC(=O)N1CCCCC1)S(C)(=O)=O"
Reply: -4.47

---

ASSAY TEXT: Leishmania major promastigote growth inhibition, primary screen (AID 1063);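 also: promastigotes grown with compound for 44 hours at 28 °C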
STATED CONDITIONS: Leishmania major promastigotes, resazurin fluorescence viability; at 10 µM; hits give high values
About 18,000 (9%) of roughly 200,000 compounds were called active. The sample holds actives, similar compounds and a random draw of the others, so the mix is not that of the screen.
PARAMETER: inhibition

Task item: Give its inhibition value. Item: "O=C(CSc1ccc(-c2ccc(F)cc2)nn1)Nc1ccc2c(c1)OCCO2"
Reply: -7% (inactive)

Task item: Give its inhibition value. Item: "CCOC(=O)C1=C(CC)Nc2ccccc2N=C1N"
Reply: -8.37% (inactive)

Task item: Give its inhibition value. Item: "CCCn1c(SCC(=O)Nc2cccc(C(=O)OCC)c2)nnc1-c1ccoc1C"
Reply: 23.8% (inactive)

Task item: Give its inhibition value. Item: "Cc1cccn2c(=O)c3cc(C#N)c(=O)n(CCCN4CCOCC4)c3nc12"
Reply: 95.7% (active)

Task item: Give its inhibition value. Item: "CCOC(=O)c1[nH]c2ccc(OC)cc2c1NC(=O)N1CCOCC1"
Reply: 2.48% (inactive)

Task item: Give its inhibition value. Item: COc1ccccc1NC(=O)C1=C(C)Nc2nnnn2C1c1cccc(Br)c1 (centres undefined)
Reply: 95.7% (active)

---

ASSAY TEXT: Leishmania major promastigote growth inhibition, primary screen (AID 1063);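 also: promastigotes grown with compound for 44 hours at 28 °C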
STATED CONDITIONS: Leishmania major promastigotes, resazurin fluorescence viability; at 10 µM; hits give high values
Screen size: about 200,000 compounds; about 18,000 (9%) were called active. For the sample, actives were picked, then their nearest neighbours and some compounds at random.
PARAMETER: inhibition (%)
Answer format: numeric, % implied, no suffix.

Field: example entries. Status: answers known.
[[record]]
compound = "Cc1cc2nc(C(F)(F)F)cc(-c3cccs3)n2n1"
units_symbol = "%"
numeric_result = 2.4

[[record]]
compound = "O=C(NCCc1ccccc1)C1CCC(Cn2c(=O)c3ccccc3n(Cc3cccnc3)c2=O)CC1 (stereo not drawn)"
units_symbol = "%"
numeric_result = 73.5

[[record]]
compound = "C=CCNC(=O)CC12CC3CC(C1)CC(CC(=O)NCC=C)(C3)C2"
units_symbol = "%"
numeric_result = -6.25

[[record]]
compound = "CC(=O)c1ccc2c(c1)c1ccccc1n2CC(C)C"
units_symbol = "%"
numeric_result = 9.99

[[record]]
compound = "COc1ccc(NS(=O)(=O)c2ccc(NC(C)=O)cc2)cc1OC"
units_symbol = "%"
numeric_result = -3.17

[[record]]
compound = "Cc1nn(Cc2ccc(Cl)cc2)c(Cl)c1/C=N/NC(=O)CNc1ccccc1F"
units_symbol = "%"
numeric_result = 8.05


Task item: Give its inhibition value. Item: "OCCNCCCCOc1ccccc1F"
Reply: 19.1

Task item: Give its inhibition value. Item: Cc1noc(COc2ccccc2OCC(O)CNC(C)(C)C)n1 (stereo not drawn)
Reply: 5.97

Task item: Give its inhibition value. Item: "O=C(NCc1nnc(SCC(=O)N2CCC(Cc3ccccc3)CC2)o1)c1ccco1"
Reply: 25

Task item: Give its inhibition value. Item: "COc1ccc(CCCc2nnc(SCc3nc4ccccc4c(=O)[nH]3)n2C)cc1"
Reply: -4.22

Task item: Give its inhibition value. Item: "CCOc1ccccc1NC(=O)Nc1cc(OC)ccc1OC"
Reply: -3.92

Task item: Give its inhibition value. Item: "CCOc1ccccc1Oc1cn[nH]c1-c1ccc(OC)cc1O"
Reply: 50.6

Task item: Give its inhibition value. Item: COc1ccc(CCNC(=O)Cn2c(=O)n(CC3CCCO3)c(=O)c3ccccc32)cc1OC (stereo not drawn)
Reply: -4.82

Task item: Give its inhibition value. Item: "Cc1cccc(N=C2NN=C(c3c[nH]c4ccccc34)CS2)c1"
Reply: 64.9

Task item: Give its inhibition value. Item: "COc1ccc(CN(Cc2ccco2)S(=O)(=O)c2ccc(S(=O)(=O)N3CCCC3)cc2)cc1"
Reply: -4.09

Task item: Give its inhibition value. Item: O=C(O)C1CC(=O)N(Cc2cccnc2)C1 (stereo not drawn)
Reply: -7.68

Task item: Give its inhibition value. Item: COCC(C)NC(=O)c1ccc(Cl)c(Cl)c1 (stereo not drawn)
Reply: -3.5

Task item: Give its inhibition value. Item: "O=[N+]([O-])c1ccc2oc(-c3cccc(O)c3)nc2c1"
Reply: -1.6

Task item: Give its inhibition value. Item: "CCN(CC)N=Nc1cccc(NC(C)=O)c1"
Reply: -3.03

Task item: Give its inhibition value. Item: "CCOc1ccc(CN(Cc2ccco2)S(=O)(=O)c2ccc(-n3cnnn3)c(OC)c2)cc1"
Reply: 95.5

Task item: Give its inhibition value. Item: "COc1ccc(-c2nn(-c3ccccc3)cc2/C=C\C(=O)N2CCOCC2)cc1[N+](=O)[O-]"
Reply: 12.4

Task item: Give its inhibition value. Item: "S=C(c1ccc(-c2ccccc2)o1)N1CCCCC1"
Reply: 12.2

Task item: Give its inhibition value. Item: "CCOc1ccc(-c2n[nH]c(C)c2-c2ccccn2)c(O)c1"
Reply: 5.25

Cited source: PubChem BioAssay AID1063
